- assay_system: ATP-dependent translocase ABCB1 (Homo sapiens)
- Sequence (P08183 whole entry): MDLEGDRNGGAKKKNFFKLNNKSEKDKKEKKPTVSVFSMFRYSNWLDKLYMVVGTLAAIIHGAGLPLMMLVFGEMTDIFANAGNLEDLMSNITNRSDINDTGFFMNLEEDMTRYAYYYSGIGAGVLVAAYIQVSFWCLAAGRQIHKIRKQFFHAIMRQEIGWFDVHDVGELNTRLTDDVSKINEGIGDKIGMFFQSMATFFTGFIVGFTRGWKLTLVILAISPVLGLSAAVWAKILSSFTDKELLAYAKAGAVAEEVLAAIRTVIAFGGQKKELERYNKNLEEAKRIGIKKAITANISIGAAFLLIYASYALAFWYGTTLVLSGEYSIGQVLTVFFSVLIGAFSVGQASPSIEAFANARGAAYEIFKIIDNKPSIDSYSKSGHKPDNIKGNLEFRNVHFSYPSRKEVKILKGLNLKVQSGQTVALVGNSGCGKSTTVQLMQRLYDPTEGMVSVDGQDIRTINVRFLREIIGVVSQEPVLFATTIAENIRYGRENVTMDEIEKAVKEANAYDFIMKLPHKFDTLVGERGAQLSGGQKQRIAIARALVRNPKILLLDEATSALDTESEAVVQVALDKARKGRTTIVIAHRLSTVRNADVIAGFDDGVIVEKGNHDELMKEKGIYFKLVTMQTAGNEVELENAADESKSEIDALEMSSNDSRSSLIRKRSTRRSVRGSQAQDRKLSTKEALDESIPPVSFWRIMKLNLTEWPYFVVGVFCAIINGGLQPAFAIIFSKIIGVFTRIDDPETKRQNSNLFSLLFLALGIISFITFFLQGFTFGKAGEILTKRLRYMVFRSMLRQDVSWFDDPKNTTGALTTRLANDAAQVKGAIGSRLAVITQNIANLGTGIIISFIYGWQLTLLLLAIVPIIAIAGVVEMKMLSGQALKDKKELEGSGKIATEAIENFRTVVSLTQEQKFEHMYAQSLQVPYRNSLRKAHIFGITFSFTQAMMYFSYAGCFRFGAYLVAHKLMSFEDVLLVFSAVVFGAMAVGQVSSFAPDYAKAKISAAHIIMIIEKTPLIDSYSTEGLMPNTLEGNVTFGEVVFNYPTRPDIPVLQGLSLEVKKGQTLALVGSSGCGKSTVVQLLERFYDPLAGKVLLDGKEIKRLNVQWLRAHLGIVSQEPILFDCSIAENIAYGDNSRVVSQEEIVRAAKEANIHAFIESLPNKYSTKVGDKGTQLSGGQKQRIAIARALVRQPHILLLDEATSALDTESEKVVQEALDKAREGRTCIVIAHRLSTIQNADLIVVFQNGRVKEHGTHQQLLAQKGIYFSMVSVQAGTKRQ
- procedure_details: Inhibition of P-glycoprotein-mediated multidrug resistance in human 2780AD cells assessed as calcein accumulation at 25 ug/mL relative to control
- Assay type: cell-based
- Design: scale not given: the % may be the effect or the level left
- conditions_used: a2780 adr
recorded_metric: Activity (%)
Form entry: value (%) — number only.

Please review the entries below; each comes with its answer.
compound | recorded_metric | endpoint_value
COC(=O)[C@@]1(C)CC[C@]2(C(=O)O[C@@H]3O[C@H](CO)[C@@H](O)[C@H](O)[C@H]3O)CC[C@]3(C)C(=CC[C@@H]4[C@@]5(C)CC(=O)[C@H](O[C@@H]6OC[C@@H](O[C@@H]7O[C@H](CO)[C@@H](O)[C@H](O)[C@H]7O)[C@H](O)[C@H]6O)[C@@](C)(CO)[C@@H]5CC[C@]43C)[C@@H]2C1 | Activity | 120
COC(=O)[C@@]1(C)CC[C@]2(C(=O)O)CC[C@]3(C)C(=CC[C@@H]4[C@@]5(C)C[C@H](O)[C@H](O[C@@H]6OC[C@@H](OC7O[C@H](CO)[C@@H](O)[C@H](O)[C@H]7O)[C@H](O)[C@H]6O)[C@@](C)(CO)[C@@H]5CC[C@]43C)[C@@H]2C1 (some centres not stated) | Activity | 119
COC(=O)[C@@]1(C)CC[C@]2(C(=O)O[C@@H]3O[C@H](CO)[C@@H](O)[C@H](O)[C@H]3O)CC[C@]3(C)C(=CC[C@@H]4[C@@]5(C)C[C@H](O)[C@H](O[C@@H]6OC[C@@H](OC7O[C@H](CO)[C@@H](O)[C@H](O)[C@H]7O)[C@H](O)[C@H]6O)[C@@](C)(CO)[C@@H]5CC[C@]43C)[C@@H]2C1 (some centres not stated) | Activity | 123
COC(=O)[C@@]1(C)CC[C@]2(C(=O)O[C@@H]3O[C@H](CO)[C@@H](O)[C@H](O)[C@H]3O)CC[C@]3(C)C(=CC[C@@H]4[C@@]5(C)CC[C@H](O[C@@H]6OC[C@@H](O)[C@H](O[C@@H]7OC[C@@H](O)[C@H](O)[C@H]7O[C@@H]7O[C@H](CO)[C@@H](O)[C@H](O)[C@H]7O[C@@H]7O[C@@H](C)[C@H](O)[C@@H](O)[C@H]7O)[C@H]6O)[C@@](C)(CO)[C@@H]5CC[C@]43C)[C@@H]2C1 | Activity | 94

Could you now consider this next compound?
The reported ATP-dependent translocase ABCB1 (Homo sapiens) Activity of COC(=O)[C@@]1(C)CC[C@]2(C(=O)O[C@@H]3O[C@H](CO)[C@@H](O)[C@H](O)[C@H]3O)CC[C@]3(C)C(=CC[C@@H]4[C@@]5(C)CC[C@H](O[C@@H]6OC[C@@H](OC7O[C@H](CO)[C@@H](O)[C@H](O)[C@H]7O)[C@H](O)[C@H]6O)[C@@](C)(CO)[C@@H]5CC[C@]43C)[C@@H]2C1 (some centres not stated) is 126

###

- assay_system: ATP-dependent translocase ABCB1 (Homo sapiens)
- procedure_details: Inhibition of P-glycoprotein-mediated multidrug resistance in human 2780AD cells assessed as calcein accumulation at 2.5 ug/mL relative to control
- Assay type: cell-based
- Set-up: scale not given: the % may be the effect or the level left
- conditions_used: a2780 adr
# Activity annotations
Form entry: value (%) — number only.

molecule | unit_info | Activity
COC(=O)[C@@]1(C)CC[C@]2(C(=O)O)CC[C@]3(C)C(=C[C@@H](OC)[C@@H]4[C@@]5(C)C[C@H](O)[C@H](O[C@@H]6OC[C@@H](O[C@@H]7O[C@H](CO)[C@@H](O)[C@H](O)[C@H]7O)[C@H](O)[C@H]6O)[C@@](C)(CO)[C@@H]5CC[C@]43C)[C@@H]2C1 | % | 123
COC(=O)[C@@]1(C)CC[C@]2(C(=O)O[C@@H]3O[C@H](CO)[C@@H](O)[C@H](O)[C@H]3O)CC[C@]3(C)C(=C[C@@H](O)[C@@H]4[C@@]5(C)C[C@H](O)[C@H](O[C@@H]6OC[C@@H](O[C@@H]7O[C@H](CO)[C@@H](O)[C@H](O)[C@H]7O)[C@H](O)[C@H]6O)[C@@](C)(CO)[C@@H]5CC[C@]43C)[C@@H]2C1 | % | 119
COC(=O)[C@@]1(C)CC[C@]2(C(=O)O[C@@H]3O[C@H](CO)[C@@H](O)[C@H](O)[C@H]3O)CC[C@]3(C)C(=CC[C@@H]4[C@@]5(C)C[C@H](O)[C@H](O[C@@H]6OC[C@@H](O)[C@H](O)[C@H]6O)[C@@](C)(CO)[C@@H]5CC[C@]43C)[C@@H]2C1 | % | 132
COC(=O)[C@@]1(C)CC[C@]2(C(=O)O[C@@H]3O[C@H](CO)[C@@H](O)[C@H](O)[C@H]3O)CC[C@]3(C)C(=CC(=O)[C@@H]4[C@@]5(C)C[C@H](O)[C@H](O[C@@H]6OC[C@@H](OC7O[C@H](CO)[C@@H](O)[C@H](O)[C@H]7O)[C@H](O)[C@H]6O)[C@@](C)(CO)[C@@H]5CC[C@]43C)[C@@H]2C1 (stereo partly specified) | % | 135
COC(=O)[C@@]1(C)CC[C@]2(C(=O)O)CC[C@]3(C)C(=CC[C@@H]4[C@@]5(C)C[C@H](O)[C@H](O[C@@H]6OC[C@@H](OC7O[C@H](CO)[C@@H](O)[C@H](O)[C@H]7O)[C@H](O)[C@H]6O)[C@@](C)(CO)[C@@H]5CC[C@]43C)[C@@H]2C1 (stereo partly specified) | % | 104

Measured Activity of COC(=O)[C@@]1(C)CC[C@]2(C(=O)O[C@@H]3O[C@H](CO)[C@@H](O)[C@H](O)[C@H]3O)CC[C@]3(C)C(=CC[C@@H]4[C@@]5(C)CC(=O)[C@H](O[C@@H]6OC[C@@H](O[C@@H]7O[C@H](CO)[C@@H](O)[C@H](O)[C@H]7O)[C@H](O)[C@H]6O)[C@@](C)(CO)[C@@H]5CC[C@]43C)[C@@H]2C1 : 115

###

- assay_system: UniProtKB P08183
- procedure_details: Inhibition of P-glycoprotein-mediated multidrug resistance in human 2780AD cells assessed as calcein accumulation at 2.5 ug/mL relative to control
- Type: cell-based
- Set-up: scale not given: the % may be the effect or the level left
- conditions_used: a2780 adr
# Activity annotations
Form entry: value (%) — number only.

The reported UniProtKB P08183 Activity of COC(=O)[C@@]1(C)CC[C@]2(C(=O)O[C@@H]3O[C@H](CO)[C@@H](O)[C@H](O)[C@H]3O)CC[C@]3(C)C(=CC[C@@H]4[C@@]5(C)CC[C@H](O[C@@H]6OC[C@@H](OC7O[C@H](CO)[C@@H](O)[C@H](O)[C@H]7O)[C@H](O)[C@H]6O)[C@@](C)(CO)[C@@H]5CC[C@]43C)[C@@H]2C1 (stereo partly drawn) is 101

The reported UniProtKB P08183 Activity of COC(=O)[C@@]1(C)CC[C@]2(C(=O)O[C@@H]3O[C@H](CO)[C@@H](O)[C@H](O)[C@H]3O)CC[C@]3(C)C(=CC[C@@H]4[C@@]5(C)CC[C@H](O[C@@H]6OC[C@@H](O)[C@H](O[C@@H]7OC[C@@H](O)[C@H](O)[C@H]7O[C@@H]7O[C@H](CO)[C@@H](O)[C@H](O)[C@H]7O[C@@H]7O[C@@H](C)[C@H](O)[C@@H](O)[C@H]7O)[C@H]6O)[C@@](C)(CO)[C@@H]5CC[C@]43C)[C@@H]2C1 is 68

The reported UniProtKB P08183 Activity of COC(=O)[C@@]1(C)CC[C@]2(C(=O)O[C@@H]3O[C@H](CO)[C@@H](O)[C@H](O)[C@H]3O)CC[C@]3(C)C(=C[C@@H](OC)[C@@H]4[C@@]5(C)C[C@H](O)[C@H](O[C@@H]6OC[C@@H](O[C@@H]7O[C@H](CO)[C@@H](O)[C@H](O)[C@H]7O)[C@H](O)[C@H]6O)[C@@](C)(CO)[C@@H]5CC[C@]43C)[C@@H]2C1 is 100

###

- Test system: A549
- procedure_details: Cell viability of human A549 cells after 24 hrs by MTT assay
- Format: functional
recorded_metric: Activity

Please review the entries below; each comes with its answer.
compound | Activity
COC(=O)[C@@]1(C)CC[C@]2(C(=O)O[C@@H]3O[C@H](CO)[C@@H](O)[C@H](O)[C@H]3O)CC[C@]3(C)C(=CC[C@@H]4[C@@]5(C)CC[C@H](O[C@@H]6OC[C@@H](O[C@@H]7O[C@H](CO)[C@@H](O)[C@H](O)[C@H]7O)[C@H](O)[C@H]6O[C@@H]6O[C@H](CO)[C@@H](O)[C@H](O)[C@H]6O)[C@@](C)(CO)[C@@H]5CC[C@]43C)[C@@H]2C1 | >88.2 µM
COC(=O)[C@@]1(C)CC[C@]2(C(=O)O[C@@H]3O[C@H](CO)[C@@H](O)[C@H](O)[C@H]3O)CC[C@]3(C)C(=C[C@@H](OC)[C@@H]4[C@@]5(C)C[C@H](O)[C@H](O[C@@H]6OC[C@@H](O[C@@H]7O[C@H](CO)[C@@H](O)[C@H](O)[C@H]7O)[C@H](O)[C@H]6O)[C@@](C)(CO)[C@@H]5CC[C@]43C)[C@@H]2C1 | >98.2 µM
COC(=O)[C@@]1(C)CC[C@]2(C(=O)O)CC[C@]3(C)C(=CC[C@@H]4[C@@]5(C)C[C@H](O)[C@H](O[C@@H]6OC[C@@H](OC7O[C@H](CO)[C@@H](O)[C@H](O)[C@H]7O)[C@H](O)[C@H]6O)[C@@](C)(CO)[C@@H]5CC[C@]43C)[C@@H]2C1 (some centres not stated) | 661 µM
COC(=O)[C@@]1(C)CC[C@]2(C(=O)O[C@@H]3O[C@H](CO)[C@@H](O)[C@H](O)[C@H]3O)CC[C@]3(C)C(=CC(=O)[C@@H]4[C@@]5(C)C[C@H](O)[C@H](O[C@@H]6OC[C@@H](OC7O[C@H](CO)[C@@H](O)[C@H](O)[C@H]7O)[C@H](O)[C@H]6O)[C@@](C)(CO)[C@@H]5CC[C@]43C)[C@@H]2C1 (some centres not stated) | >98.8 µM
COC(=O)[C@@]1(C)CC[C@]2(C(=O)O)CC[C@]3(C)C(=C[C@@H](OC)[C@@H]4[C@@]5(C)C[C@H](O)[C@H](O[C@@H]6OC[C@@H](O[C@@H]7O[C@H](CO)[C@@H](O)[C@H](O)[C@H]7O)[C@H](O)[C@H]6O)[C@@](C)(CO)[C@@H]5CC[C@]43C)[C@@H]2C1 | >118 µM
COC(=O)[C@@]1(C)CC[C@]2(C(=O)O[C@@H]3O[C@H](CO)[C@@H](O)[C@H](O)[C@H]3O)CC[C@]3(C)C(=CC[C@@H]4[C@@]5(C)C[C@H](O)[C@H](O[C@@H]6OC[C@@H](OC7O[C@H](CO)[C@@H](O)[C@H](O)[C@H]7O)[C@H](O)[C@H]6O)[C@@](C)(CO)[C@@H]5CC[C@]43C)[C@@H]2C1 (some centres not stated) | >1012 µM
COC(=O)[C@@]1(C)CC[C@]2(C(=O)O[C@@H]3O[C@H](CO)[C@@H](O)[C@H](O)[C@H]3O)CC[C@]3(C)C(=CC[C@@H]4[C@@]5(C)C[C@H](O)[C@H](O[C@@H]6OC[C@@H](O)[C@H](O)[C@H]6O)[C@@](C)(CO)[C@@H]5CC[C@]43C)[C@@H]2C1 | >121 µM
COC(=O)[C@@]1(C)CC[C@]2(C(=O)O)CC[C@]3(C)C(=CC[C@@H]4[C@@]5(C)C[C@H](O)[C@H](O[C@@H]6OC[C@@H](O)[C@H](O)[C@H]6O)[C@@](C)(CO)[C@@H]5CC[C@]43C)[C@@H]2C1 [PHYTOLACCOSIDE B] | 265 µM
COC(=O)[C@@]1(C)CC[C@]2(C(=O)O[C@@H]3O[C@H](CO)[C@@H](O)[C@H](O)[C@H]3O)CC[C@]3(C)C(=C[C@@H](O)[C@@H]4[C@@]5(C)C[C@H](O)[C@H](O[C@@H]6OC[C@@H](O[C@@H]7O[C@H](CO)[C@@H](O)[C@H](O)[C@H]7O)[C@H](O)[C@H]6O)[C@@](C)(CO)[C@@H]5CC[C@]43C)[C@@H]2C1 | >100 µM
COC(=O)[C@@]1(C)CC[C@]2(C(=O)O[C@@H]3O[C@H](CO)[C@@H](O)[C@H](O)[C@H]3O)CC[C@]3(C)C(=CC[C@@H]4[C@@]5(C)CC(=O)[C@H](O[C@@H]6OC[C@@H](O[C@@H]7O[C@H](CO)[C@@H](O)[C@H](O)[C@H]7O)[C@H](O)[C@H]6O)[C@@](C)(CO)[C@@H]5CC[C@]43C)[C@@H]2C1 | >101 µM

Measured Activity of COC(=O)[C@@]1(C)CC[C@]2(C(=O)O[C@@H]3O[C@H](CO)[C@@H](O)[C@H](O)[C@H]3O)CC[C@]3(C)C(=CC[C@@H]4[C@@]5(C)CC[C@H](O[C@@H]6OC[C@@H](O)[C@H](O[C@@H]7OC[C@@H](O)[C@H](O)[C@H]7O[C@@H]7O[C@H](CO)[C@@H](O)[C@H](O)[C@H]7O[C@@H]7O[C@@H](C)[C@H](O)[C@@H](O)[C@H]7O)[C@H]6O)[C@@](C)(CO)[C@@H]5CC[C@]43C)[C@@H]2C1 : >89 µM

Measured Activity of COC(=O)[C@@]1(C)CC[C@]2(C(=O)O[C@@H]3O[C@H](CO)[C@@H](O)[C@H](O)[C@H]3O)CC[C@]3(C)C(=CC[C@@H]4[C@@]5(C)CC[C@H](O[C@@H]6OC[C@@H](OC7O[C@H](CO)[C@@H](O)[C@H](O)[C@H]7O)[C@H](O)[C@H]6O)[C@@](C)(CO)[C@@H]5CC[C@]43C)[C@@H]2C1 (some centres not stated) : >103 µM

// provenance: ChEMBL document CHEMBL1144721
